Listing of entries alongside the reported Relative toxisity to quinidine.
Test system: white mice
Test: in vivo
Conditions: mouse, in vivo, ip, 14400 min

In the examples that follow, each entry is paired with its recorded Relative toxisity to quinidine.
Bench note: what Relative toxisity to quinidine did CCCCCCCCCCCCCCCCCC(=O)N(CCC(N)=O)N(C)C show?
> 19,2

Bench note: what Relative toxisity to quinidine did CNC(=S)N(CCC(N)=O)N(C)C show?
18,3

Bench note: what Relative toxisity to quinidine did CCCCCC(=O)N(CCC(=O)OCC)N(C)C show?
9,3

Bench note: what Relative toxisity to quinidine did COC(=O)CCN(C(=S)Nc1ccccc1)N(C)C show?
13,4

---
Bench note: what Relative toxisity to quinidine did CCOC(=O)CCN(C(C)=O)N(C)C show?
15,2

Bench note: what Relative toxisity to quinidine did COC(=O)C(C)CN(C(=O)c1ccccc1F)N(C)C (stereo not drawn) show?
8,0

Bench note: what Relative toxisity to quinidine did C=CCNC(=S)N(CCC(N)=O)N(C)C show?
18,6

Bench note: what Relative toxisity to quinidine did COC(=O)CC(C(=O)OC)N(C(=O)c1ccccc1)N(C)C (stereo not drawn) show?
> 19,2

Bench note: what Relative toxisity to quinidine did COC(=O)CCN(C(C)=O)N(C)C show?
8,3

---

Experiment: in vivo
Conditions: mouse, in vivo, ip
Consider the cut-off 2000 mg/kg. If the recorded LD50 at 240 h is strictly smaller, the label is label 1; if not, the label is label 0.

Below 2000 mg/kg on LD50 at 240 h? Entry CCCCCCCCCCCCCCCCCC(=O)N(CCC(N)=O)N(C)C
label 0

Below 2000 mg/kg on LD50 at 240 h? Entry COC(=O)CC(C(=O)OC)N(C(=O)NCCCCCCNC(=O)N(C(CC(=O)OC)C(=O)OC)N(C)C)N(C)C (stereo not shown)
label 0

Below 2000 mg/kg on LD50 at 240 h? Entry CNC(=O)N(CCC(=O)OC)N(C)C
label 0

---

System: white mice
Test: in vivo
Settings: mouse, in vivo, ip, 14400 min
Listing of entries alongside the reported Relative toxisity to quinidine.

In the examples that follow, each entry is paired with its recorded Relative toxisity to quinidine.
Bench note: what Relative toxisity to quinidine did CCOC(=O)CCN(C(=O)NC)N(C)C show?
11,9

Bench note: what Relative toxisity to quinidine did COC(=O)CCN(C(N)=O)N(C)C show?
13,3

Bench note: what Relative toxisity to quinidine did CC(=O)N(CCC(N)=O)N(C)C show?
> 19,2

---
Bench note: what Relative toxisity to quinidine did CCOC(=O)CCN(C(=O)c1ccccc1)N(C)C show?
10,5

Bench note: what Relative toxisity to quinidine did C=CCNC(=S)N(CCC#N)N(C)C show?
9,3

Bench note: what Relative toxisity to quinidine did COC(=O)CCN(C(=O)c1ccccc1F)N(C)C show?
10,2

Bench note: what Relative toxisity to quinidine did CCCC(=O)N(CCC(N)=O)N(C)C show?
10,9

Bench note: what Relative toxisity to quinidine did COC(=O)CCN(C(=O)c1ccccc1COC(=O)c1ccccc1)N(C)C show?
18,2

Bench note: what Relative toxisity to quinidine did COC(=O)CCN(C(=O)CCO)N(C)C show?
> 19,2

Bench note: what Relative toxisity to quinidine did CNC(=O)N(CC(C)C(=O)OC)N(C)C (stereo not drawn) show?
8,1

Bench note: what Relative toxisity to quinidine did COC(=O)C(C)CN(C(=S)Nc1ccccc1)N(C)C (stereo not drawn) show?
12,5

Bench note: what Relative toxisity to quinidine did COC(=O)C(C)CN(C(N)=O)N(C)C (stereo not drawn) show?
11,8

// data source = patent US4633014A
